# Test system: MCF7 breast
# protocolNotes: NCI tumour cell line growth inhibition, 48 h
Where a SMILES comes first, the peptide text is derived from it. The star is where a group is joined. Boc = CC(C)(C)OC(=O)*
measurementLabel: TGI

[[record]]
molecule = "COc1ccc2nccc(NCCCN3CCN(CCCNc4ccnc5ccc(OC)cc45)CC3)c2c1"
assaytarget = "MCF7 breast"
readoutvalue = "1.37 µM"

[[record]]
molecule = "CC(C)OC(=O)c1ccc(CCc2cc(O)c(Br)cc2O)cc1"
assaytarget = "MCF7 breast"
readoutvalue = "29.4 µM"

[[record]]
molecule = "N#CC(NCCc1ccccc1)c1ccccc1 (stereo unspecified)"
assaytarget = "MCF7 breast"
readoutvalue = "> 100 µM"

[[record]]
molecule = "O=C1C(=O)c2c(O)ccc(O)c2C(O)=C1Cl"
assaytarget = "MCF7 breast"
readoutvalue = "> 100 µM"

[[record]]
molecule = "CC(C)=CCC/C(C)=C/CC/C(C)=C/CCN(C)CCO"
assaytarget = "MCF7 breast"
readoutvalue = "7.13 µM"

[[record]]
molecule = "CSCCC(NC(=O)CNC(=O)C(CC(=O)O)NC(=O)C(NC(=O)C(NC(=O)C(NC(=O)CNC(=O)C(CCC(N)=O)NC(=O)C(CCSC)NC(=O)C(CC(=O)O)NC(=O)C(C)NC(=O)C(C)NC(=O)C(NC(=O)C(CO)NC(=O)C(N)CC(C)C)C(C)O)C(C)C)C(C)C)C(C)O)C(=O)NC(C)C(=O)NC(CO)C(=O)NCC(=O)NC(CC(C)C)C(=O)NC(CC(=O)O)C(=O)NC(CCCCN)C(=O)NC(CC(=O)O)C(=O)NC(Cc1ccc(O)cc1)C(=O)NC(CC(C)C)C(=O)NC(CCCCN)C(=O)N1CCCC1C(=O)NC(CC(=O)O)C(=O)NC(CC(=O)O)C(=O)O (stereo unspecified)"
assaytarget = "MCF7 breast"
readoutvalue = "> 82.5 µM"

[[record]]
molecule = "C=C(CN(C)C)C(=O)c1ccc(OC2OC(COC(C)=O)C(OC(C)=O)C(OC(C)=O)C2OC(C)=O)cc1 (stereo unspecified)"
assaytarget = "MCF7 breast"
readoutvalue = "5.51 µM"

[[record]]
molecule = "COc1ccc(N2C(=O)CC(=O)N(C(=O)CCCCCCCCC(=O)N3C(=O)CC(=O)N(c4ccc(OC)cc4)C3=S)C2=S)cc1"
assaytarget = "MCF7 breast"
readoutvalue = "> 100 µM"

[[record]]
molecule = "O=C(O[C@H]1CN[C@H](C#Cc2cc3ncnc(Nc4ccc5c(cnn5Cc5ccccc5)c4)c3s2)C1)N1CCOCC1"
assaytarget = "MCF7 breast"
readoutvalue = "> 25 µM"

[[record]]
molecule = "CC(NC(=O)OC(C)(C)C)C(=O)NC(Cc1ccccc1)C(=O)NCC(=O)O (stereo not drawn) (Boc-Ala-Phe-Gly-OH; configuration not given here)"
assaytarget = "MCF7 breast"
readoutvalue = "> 100 µM"

[[record]]
molecule = "CCCCN(C(=O)c1ccccc1)C1CCC(=O)c2[nH]c3ccccc3c21 (stereo unspecified)"
assaytarget = "MCF7 breast"
readoutvalue = "> 100 µM"

